Could you please report measured Ki for the items listed next?
SYSTEM_UNDER_TEST: Translocator protein (Rattus norvegicus)
Sequence (P16257 whole entry, looked up): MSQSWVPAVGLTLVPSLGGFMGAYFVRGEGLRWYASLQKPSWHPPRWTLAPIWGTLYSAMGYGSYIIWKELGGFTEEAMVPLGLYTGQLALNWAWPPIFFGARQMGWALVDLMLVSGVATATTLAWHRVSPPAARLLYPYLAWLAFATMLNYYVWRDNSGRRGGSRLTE
TEST_PROTOCOL: Displacement of [3H]-PK 11195 from TSPO in rat C6 cell lysates after 2 hrs by scintillation counting analysis

CCN(CC)C(=O)Cc1c(-c2ccc(OC)cc2)nn2c(C)c(CC(C)=O)c(C)nc12: 201 nM
CCc1cc(CC)n2nc(-c3ccc(OC)cc3)c(CC(=O)N(CC)CC)c2n1: 0.18 nM
CCN(CC)C(=O)Cc1c(-c2ccc(OC)cc2)nn2c(C)c(C)c(C)nc12: 93.7 nM
CCc1cc(CC)n2nc(-c3ccc(OCCF)cc3)c(CC(=O)N(CC)CC)c2n1: 0.27 nM
CCN(CC)C(=O)Cc1c(-c2ccc(OCCF)cc2)nn2c(C)c(CC(C)=O)c(C)nc12: 252 nM
CCN(CC)C(=O)Cc1c(-c2ccc(OC)cc2)nn2c(C(C)C)cc(C(C)C)nc12: > 500 nM

Query compound follows.
Exercise: May I ask what Ki has been recorded for CCN(CC)C(=O)Cc1c(-c2ccc(OCCF)cc2)nn2c(C)c(Cl)c(C)nc12 ?
Key: 67.9 nM

====

SYSTEM_UNDER_TEST: Translocator protein (Rattus norvegicus)
TEST_PROTOCOL: Displacement of [3H]-PK 11195 from TSPO in rat C6 cell lysates after 2 hrs by scintillation counting analysis
Assay type: cell-free
Assignment: determine reported pKi for the given compounds.
Answers are plain numbers, as −log10 of the molar value.

CCN(CC)C(=O)Cc1c(-c2ccc(OC)cc2)nn2c(C)c(Cl)c(C)nc12: 7.26
CCN(CC)C(=O)Cc1c(-c2ccc(OCCF)cc2)nn2c(C)c(C)c(C)nc12: 7.08
CCc1c(C)nc2c(CC(=O)N(CC)CC)c(-c3ccc(OCCF)cc3)nn2c1C: 6.56

Exercise: Sample CCc1c(C)nc2c(CC(=O)N(CC)CC)c(-c3ccc(OC)cc3)nn2c1C — what was its pKi?
Key: 6.80

====

TEST_PROTOCOL: Lipophilicity, log P of the compound at pH 7.5 by reversed phase HPLC analysis
Type: physicochemical
CONDITION_LABEL: buffer
ASSAY_METRIC: logP
Answers are plain numbers.

CCN(CC)C(=O)Cc1c(-c2ccc(OCCF)cc2)nn2c(C(C)C)cc(C(C)C)nc12: 2.73
CCN(CC)C(=O)Cc1c(-c2ccc(OCCF)cc2)nn2c(C)cc(C)nc12 [DPA-714]: 2.12
CCc1cc(CC)n2nc(-c3ccc(OC)cc3)c(CC(=O)N(CC)CC)c2n1: 2.84

Please state logP for every compound in the list that follows.
1. CCN(CC)C(=O)Cc1c(-c2ccc(OC)cc2)nn2c(C)cc(C)nc12
2. CCN(CC)C(=O)Cc1c(-c2ccc(OC)cc2)nn2c(C(C)C)cc(C(C)C)nc12

Key:
[2.4, 2.98]

====

TEST_PROTOCOL: Displacement of [3H]-flunitrazepam from CBR in Wistar rat cerebral cortex membranes after 2 hrs by scintillation counting analysis
Format: cell membranes, Membrane
ASSAY_METRIC: Ki

Exercise: // returns reported Ki for input CCc1cc(CC)n2nc(-c3ccc(OCCF)cc3)c(CC(=O)N(CC)CC)c2n1
Key: > 10 µM

====

TEST_PROTOCOL: Drug metabolism in Wistar rat plasma at 130 to 200 MBq, iv after 12 mins by radio-HPLC analysis
Type: ADME, organism-based
CONDITION_LABEL: read-out: Drug metabolism
ASSAY_METRIC: metabolised at 0.2 h (%)
Give bare numbers, in %.

Exercise: Form field: reported metabolised at 0.2 h of CCN(CC)C(=O)Cc1c(-c2ccc(OCC[18F])cc2)nn2c(C)cc(C)nc12
Key: 30

Taken from ChEMBL document CHEMBL2331516.
